testName: Single-dose pharmacokinetics, safety and tolerability of 10-minute intravenous infusion in healthy volunteers
Type: in vivo, human
measurementConditions: human, plasma, 0.6 ug/kg; 0.6 μg/kg iv over 10 minutes; read-out: CL, mean (SD)
property: clearance (mL/min/kg)

{"columns": ["compound", "outputUnit", "testResult"],
 "data": [
  ["Nc1nc(N/N=C/C2CCCCC2)nc2c1ncn2[C@@H]1O[C@H](CO)[C@@H](O)[C@H]1O (stereo in doubt)", "mL/min/kg", 28.8]
]}

* * *

testName: Single-dose pharmacokinetics, safety and tolerability of 10-minute intravenous infusion in healthy volunteers
Format: in vivo, human
measurementConditions: human, plasma, 1 ug/kg; 1 μg/kg iv over 10 minutes; read-out: AUC0-∞, mean (SD) (converted)
property: AUC(0-inf)

{"columns": ["molecule", "testResult"],
 "data": [
  ["Nc1nc(N/N=C/C2CCCCC2)nc2c1ncn2[C@@H]1O[C@H](CO)[C@@H](O)[C@H]1O (stereo in doubt)", "0.465 ng·h/mL"]
]}
